Target: human Lp-PLA2 (Homo sapiens, UniProt Q13093)
Construct: purchased Cayman Chemical
Sequence (Q13093 22-441): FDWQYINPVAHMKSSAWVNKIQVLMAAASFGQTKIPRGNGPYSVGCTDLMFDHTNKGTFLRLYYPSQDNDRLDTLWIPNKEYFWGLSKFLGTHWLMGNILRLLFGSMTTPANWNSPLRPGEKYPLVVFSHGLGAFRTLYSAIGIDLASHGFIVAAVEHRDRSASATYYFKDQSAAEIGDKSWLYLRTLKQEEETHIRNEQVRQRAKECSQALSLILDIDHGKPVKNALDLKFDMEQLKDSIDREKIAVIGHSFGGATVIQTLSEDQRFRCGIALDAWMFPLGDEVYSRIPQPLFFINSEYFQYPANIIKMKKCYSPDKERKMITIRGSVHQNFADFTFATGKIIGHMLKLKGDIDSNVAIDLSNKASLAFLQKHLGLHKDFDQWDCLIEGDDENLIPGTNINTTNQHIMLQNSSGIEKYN
Test: Lp-PLA2 inhibition assay (UV-spectrometry, 2-thio-PAF/DTNB, 96-well)
Type: biochemical
Conditions: Table 2; read-out: Lp-PLA2 Inhibition (IC50)
IC50 under 200 nM gets Yes, anything at or over 200 nM gets No.

{"columns": ["Compound", "Target system", "Group label"],
 "data": [
  ["COc1ccc(C(=O)c2c(-c3ccccc3)c(C(C)=O)n3ccccc23)cc1 [Cmpd 5]", "human Lp-PLA2 (Homo sapiens, UniProt Q13093)", "No"],
  ["CC(=O)c1c(-c2ccccc2)c(C(=O)c2ccc(F)cc2)c2ccccn12 [Cmpd 8]", "human Lp-PLA2 (Homo sapiens, UniProt Q13093)", "No"],
  ["CC(=O)c1c(-c2ccccc2)c(C(=O)c2ccccc2)c2ccccn12 [Cmpd 1]", "human Lp-PLA2 (Homo sapiens, UniProt Q13093)", "No"],
  ["CSc1ccc(C(=O)c2c(-c3ccccc3)c(C(C)=O)n3ccccc23)cc1 [Cmpd 6]", "human Lp-PLA2 (Homo sapiens, UniProt Q13093)", "No"],
  ["CC(=O)c1c(-c2ccccc2)c(C(=O)c2ccc(C)cc2)c2ccccn12 [Cmpd 2]", "human Lp-PLA2 (Homo sapiens, UniProt Q13093)", "Yes"]
]}
